# method: Pharmacokinetics parameters from an open-label, single-dose, cross-over clinical study (GastroPlus input)
# Format: in vivo
# run conditions: human, plasma, oral, 10 mg, clinical study in the fed and fasted state
quantity: clearance (mL/min)
Note: unit mL/min is implicit; provide only the numeric part.

Problem: Which clearance value belongs to C[C@H]1CNCCc2ccc(Cl)cc21 ?
Result: 326

----------
# method: in vivo
# run conditions: male, Sprague-Dawley, rat, plasma, po, 24 mg/kg/day
quantity: AUC(0-inf) (ng·h/mL)
Note: unit ng·h/mL is implicit; provide only the numeric part.

Problem: Which AUC(0-inf) value belongs to C[C@H]1CNCCc2ccc(Cl)cc21 [Compound 1] ?
Result: 5210

----------
# method: in vivo
# run conditions: male, Sprague-Dawley, rat, plasma, po, 24 mg/kg/day
quantity: Cmax

Problem: Which Cmax value belongs to C[C@H]1CNCCc2ccc(Cl)cc21 ?
Result: 700 ng/mL

----------
# method: in vivo
# run conditions: male, SD, rat, plasma, sc, 0.63 mg/kg/h
quantity: AUC(0-t) (ng·h/mL)
Note: unit ng·h/mL is implicit; provide only the numeric part.

Problem: Which AUC(0-t) value belongs to C[C@H]1CNCCc2ccc(Cl)cc21 ?
Result: 3630

----------
# method: in vivo
# run conditions: male, SD, rat, plasma, po, 24 mg/kg/day
quantity: AUC(0-t) (ng·h/mL)
Note: unit ng·h/mL is implicit; provide only the numeric part.

Problem: Which AUC(0-t) value belongs to C[C@H]1CNCCc2ccc(Cl)cc21 ?
Result: 4170

----------
# method: in vivo
# run conditions: male, Sprague-Dawley, rat, plasma, po, 24 mg/kg/day
quantity: AUC(0-t) (ng·h/mL)
Note: unit ng·h/mL is implicit; provide only the numeric part.

Problem: Which AUC(0-t) value belongs to C[C@H]1CNCCc2ccc(Cl)cc21 ?
Result: 5210

----------
# method: Solubility of salts in water (UPLC or gravimetry)
# Type: physicochemical
# run conditions: water, thermodynamic from solid; 27° C., by gravimetry (confirmed by UPLC); read-out: solubility in water
quantity: solubility
Your reply should be a number followed by the unit it is expressed in.

Problem: Which solubility value belongs to C[C@H]1CNCCc2ccc(Cl)cc21.I [Compound 1 hydroiodide salt] ?
Result: 5500 µg/mL

----------
# method: clinical
# run conditions: human, brain (lumbar cerebrospinal fluid measured) and plasma, oral, 10 mg
quantity: Kp

Problem: Which Kp value belongs to C[C@H]1CNCCc2ccc(Cl)cc21 [Compound 1] ?
Result: < 1

----------
# method: in vivo
# run conditions: male, Sprague-Dawley, rat, plasma, po, 24 mg/kg/day, t1/2, Day 6, oral gavage 24 mg/kg/day for 6 days, not fasted, composite profiles
quantity: half-life
Your reply should be a number followed by the unit it is expressed in.

Problem: Which half-life value belongs to C[C@H]1CNCCc2ccc(Cl)cc21 [Compound 1] ?
Result: 4 h

----------
# method: physchem
quantity: pKa
I'd appreciate a reply containing only the number, no unit.

Problem: Which pKa value belongs to C[C@H]1CNCCc2ccc(Cl)cc21 [Compound 1] ?
Result: 9.53

----------
# method: in vivo
# run conditions: male, SD, rat, plasma, sc, 0.63 mg/kg/h
quantity: Cmax (ng/mL)
Note: unit ng/mL is implicit; provide only the numeric part.

Problem: Which Cmax value belongs to C[C@H]1CNCCc2ccc(Cl)cc21 ?
Result: 213

----------
# method: in vivo
# run conditions: male, SD, rat, plasma, po, 24 mg/kg/day
quantity: Cmax
Your reply should be a number followed by the unit it is expressed in.

Problem: Which Cmax value belongs to C[C@H]1CNCCc2ccc(Cl)cc21 ?
Result: 553 ng/mL

----------
# method: Pharmacokinetics parameters from an open-label, single-dose, cross-over clinical study (GastroPlus input)
# Assay type: in vivo
# run conditions: human, blood and plasma, oral, 10 mg, clinical study in the fed and fasted state, read-out: Blood to plasma concentration ratio
quantity: blood plasma ratio
I'd appreciate a reply containing only the number, no unit.

Problem: Which blood plasma ratio value belongs to C[C@H]1CNCCc2ccc(Cl)cc21 [Compound 1] ?
Result: 1.3

----------
# method: in vivo
# run conditions: male, Sprague-Dawley, rat, plasma, po, 24 mg/kg/day
quantity: Tmax (min)
Note: unit min is implicit; provide only the numeric part.

Problem: Which Tmax value belongs to C[C@H]1CNCCc2ccc(Cl)cc21 ?
Result: 30
